The origin of these recorded values is patent US10280170B2.

Biological target: Ros1 enzyme (Homo sapiens)
Construct: 0.5 μg/ml Ros1 enzyme
Sequence (P08922 28-2347): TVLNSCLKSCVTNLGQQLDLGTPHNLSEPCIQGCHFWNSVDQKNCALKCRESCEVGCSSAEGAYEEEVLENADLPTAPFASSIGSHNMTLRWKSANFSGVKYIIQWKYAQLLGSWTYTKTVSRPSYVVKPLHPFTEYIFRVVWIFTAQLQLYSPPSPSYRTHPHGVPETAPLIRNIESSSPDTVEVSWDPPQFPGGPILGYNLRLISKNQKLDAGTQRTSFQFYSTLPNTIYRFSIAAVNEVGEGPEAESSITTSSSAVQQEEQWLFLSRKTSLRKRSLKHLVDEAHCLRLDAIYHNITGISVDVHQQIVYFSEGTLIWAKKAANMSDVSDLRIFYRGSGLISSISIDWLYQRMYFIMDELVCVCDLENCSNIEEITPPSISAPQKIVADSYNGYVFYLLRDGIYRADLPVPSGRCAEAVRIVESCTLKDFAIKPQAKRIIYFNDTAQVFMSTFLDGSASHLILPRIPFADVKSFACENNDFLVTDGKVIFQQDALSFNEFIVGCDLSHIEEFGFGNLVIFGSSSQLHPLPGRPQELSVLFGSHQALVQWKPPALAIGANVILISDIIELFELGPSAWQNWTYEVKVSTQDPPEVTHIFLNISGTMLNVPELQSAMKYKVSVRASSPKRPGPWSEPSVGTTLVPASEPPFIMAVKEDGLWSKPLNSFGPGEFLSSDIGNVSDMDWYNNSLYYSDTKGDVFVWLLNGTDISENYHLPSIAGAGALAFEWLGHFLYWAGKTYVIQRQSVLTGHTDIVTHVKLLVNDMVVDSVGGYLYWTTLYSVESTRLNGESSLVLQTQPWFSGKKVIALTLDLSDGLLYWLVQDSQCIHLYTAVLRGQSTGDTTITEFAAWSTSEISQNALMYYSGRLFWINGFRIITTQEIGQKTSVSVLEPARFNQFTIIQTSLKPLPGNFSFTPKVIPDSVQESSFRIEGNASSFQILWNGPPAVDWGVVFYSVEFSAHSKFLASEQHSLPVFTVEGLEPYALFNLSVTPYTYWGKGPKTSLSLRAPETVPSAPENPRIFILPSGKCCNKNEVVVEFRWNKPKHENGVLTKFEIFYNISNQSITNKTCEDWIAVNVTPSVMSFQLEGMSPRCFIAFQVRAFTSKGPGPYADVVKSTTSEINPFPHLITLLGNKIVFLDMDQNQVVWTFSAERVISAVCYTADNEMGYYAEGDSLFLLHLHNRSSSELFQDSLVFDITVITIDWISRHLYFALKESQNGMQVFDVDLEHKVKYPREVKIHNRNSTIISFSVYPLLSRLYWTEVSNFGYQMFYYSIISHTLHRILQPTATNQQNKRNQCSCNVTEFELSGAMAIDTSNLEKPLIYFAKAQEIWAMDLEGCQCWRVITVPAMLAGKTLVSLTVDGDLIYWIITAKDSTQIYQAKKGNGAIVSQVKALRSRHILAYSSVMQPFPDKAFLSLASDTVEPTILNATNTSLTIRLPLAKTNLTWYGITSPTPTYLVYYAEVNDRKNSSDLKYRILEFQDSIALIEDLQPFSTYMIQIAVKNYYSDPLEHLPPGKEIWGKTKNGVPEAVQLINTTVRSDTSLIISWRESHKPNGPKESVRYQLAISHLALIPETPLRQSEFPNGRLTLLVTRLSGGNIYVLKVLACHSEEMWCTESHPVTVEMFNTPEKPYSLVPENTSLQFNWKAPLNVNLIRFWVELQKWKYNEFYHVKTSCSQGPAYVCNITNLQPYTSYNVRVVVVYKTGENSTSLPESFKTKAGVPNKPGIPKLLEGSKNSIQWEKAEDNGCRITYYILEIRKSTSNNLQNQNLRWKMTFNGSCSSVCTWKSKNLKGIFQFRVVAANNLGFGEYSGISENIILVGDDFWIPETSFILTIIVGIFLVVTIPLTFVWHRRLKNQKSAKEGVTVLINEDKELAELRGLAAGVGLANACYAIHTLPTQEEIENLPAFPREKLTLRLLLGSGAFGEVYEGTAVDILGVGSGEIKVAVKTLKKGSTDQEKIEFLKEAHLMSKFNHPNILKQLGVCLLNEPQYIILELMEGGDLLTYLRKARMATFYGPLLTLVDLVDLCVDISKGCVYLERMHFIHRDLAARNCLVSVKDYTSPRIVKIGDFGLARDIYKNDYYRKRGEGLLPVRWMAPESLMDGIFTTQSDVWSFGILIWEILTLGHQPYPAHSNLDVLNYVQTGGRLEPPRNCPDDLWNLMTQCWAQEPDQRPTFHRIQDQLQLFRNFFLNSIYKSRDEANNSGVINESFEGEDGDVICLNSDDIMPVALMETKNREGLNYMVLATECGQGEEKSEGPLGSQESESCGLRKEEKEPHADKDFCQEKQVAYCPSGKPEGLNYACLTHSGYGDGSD
Experiment: Ros1 enzymatic assay
Type: biochemical
Conditions: Ros1 enzymatic assay; read-out: ROS1 pIC50 (converted)
Description: Compounds were spotted onto white 384-well Proxiplate plus plates (Perkin Elmer) to which 5 μl of enzyme mix (0.5 μg/ml Ros1 enzyme, 50 mM Tris-HCl pH7.5, 1 mM EGTA, 10 mM MgCl2, 0.01% Tween-20) and 5 μl of substrate mix (6 μg/ml IRS-Tide [American Peptide Company], 20 μM ATP, 13.33 μCi/ml ATP (adenosine 5′-triphosphate) P^33, 50 mM Tris-HCl pH7.5, 1 mM EGTA (ethylene glycol-bis(2-aminoethylether)-N,N,N′,N′-tetraacetic acid), 10 mM MgCl2, 0.01% Tween-20) were added. […]
The following compounds are listed with their measured IC50 values.
ASSAY_ENDPOINT: IC50 (µM)

- COMPOUND: "Cc1cc(-c2c(-c3ccncc3)nn3c2C(=O)N(CCO)CC3)ccc1OCc1ccc(C(C)C)cc1"
  ASSAYED_SYSTEM: "Ros1 enzyme (Homo sapiens)"
  TEST_RESULT: 1.58
- COMPOUND: "CCC(C)c1ccc(COc2ccc(-c3c(-c4ccncc4)nn4c3C(=O)N(CCO)CC4)cc2)cc1 (stereo not drawn)"
  ASSAYED_SYSTEM: "Ros1 enzyme (Homo sapiens)"
  TEST_RESULT: 0.02
- COMPOUND: "CC(C)c1ccc(COc2ncc(-c3c(-c4ccncc4)nn4c3C(=O)NCC4)cn2)cc1"
  ASSAYED_SYSTEM: "Ros1 enzyme (Homo sapiens)"
  TEST_RESULT: 0.0126
- COMPOUND: "CNC(=O)CN1CCn2nc(-c3ccncn3)c(-c3ccc(OCc4ccc(C(C)C)cc4)cc3)c2C1=O"
  ASSAYED_SYSTEM: "Ros1 enzyme (Homo sapiens)"
  TEST_RESULT: 0.158
- COMPOUND: "CC(C)c1ccc(COc2ccc(-c3c(-c4ccncc4)nn4c3C(=O)N(CC3CNC(=O)O3)CC4)cc2)cc1 (stereo not drawn)"
  ASSAYED_SYSTEM: "Ros1 enzyme (Homo sapiens)"
  TEST_RESULT: 0.0398
- COMPOUND: "O=C1c2c(-c3ccc(OCc4ccc(C5CC5)c(F)c4)cc3)c(-c3ccncc3)nn2CCN1CCO"
  ASSAYED_SYSTEM: "Ros1 enzyme (Homo sapiens)"
  TEST_RESULT: 0.126
- COMPOUND: "CC(=O)OC(C)CN1CCn2nc(-c3ccncc3)c(-c3ccc(OCc4ccc(C(C)C)cc4)cc3)c2C1=O (stereo not drawn)"
  ASSAYED_SYSTEM: "Ros1 enzyme (Homo sapiens)"
  TEST_RESULT: 0.0631
- COMPOUND: "CC(C)c1ccc(COc2cc(F)c(-c3c(-c4ccncc4)nn4c3C(=O)NCC4)cn2)cc1"
  ASSAYED_SYSTEM: "Ros1 enzyme (Homo sapiens)"
  TEST_RESULT: 0.0158
- COMPOUND: "O=C1c2c(-c3ccc(OCc4ccc(C5CC5)nc4)cc3)c(-c3ccncc3)nn2CCN1CCO"
  ASSAYED_SYSTEM: "Ros1 enzyme (Homo sapiens)"
  TEST_RESULT: 0.126
- COMPOUND: "CC(C)c1ccc(CC(=O)c2ccc(-c3c(-c4ccncc4)nn4c3C(=O)NCC4)cc2)cc1"
  ASSAYED_SYSTEM: "Ros1 enzyme (Homo sapiens)"
  TEST_RESULT: 6.31
- COMPOUND: "COc1cc(C(C)C)ccc1COc1ccc(-c2c(-c3ccncc3)nn3c2C(=O)NCC3)cc1"
  ASSAYED_SYSTEM: "Ros1 enzyme (Homo sapiens)"
  TEST_RESULT: 0.0631
- COMPOUND: "O=C1NCCn2nc(-c3ccncc3)c(-c3ccc(OCc4cccc(C(F)(F)F)c4)cc3)c21"
  ASSAYED_SYSTEM: "Ros1 enzyme (Homo sapiens)"
  TEST_RESULT: 0.251
- COMPOUND: "Cc1cc(C(C)C)ccc1COc1ccc(-c2c(-c3ccncc3)nn3c2C(=O)NCC3)cc1"
  ASSAYED_SYSTEM: "Ros1 enzyme (Homo sapiens)"
  TEST_RESULT: 0.251
- COMPOUND: "CC(C)c1ccc(COc2ccc(-c3c(-c4ccncc4)nn4c3C(=O)N(CCC#N)CC4)cc2)cc1"
  ASSAYED_SYSTEM: "Ros1 enzyme (Homo sapiens)"
  TEST_RESULT: 0.0251
- COMPOUND: "O=C1NCCn2nc(-c3ccncc3)c(-c3ccc(OCc4ccc(C(F)(F)F)cc4)cc3)c21"
  ASSAYED_SYSTEM: "Ros1 enzyme (Homo sapiens)"
  TEST_RESULT: 0.2
